Tested on: SK-OV-3 ovarian
protocol-summary: NCI-60 one-dose screen, 48 h (100 = growth as untreated, 0 = no growth, -100 = all killed)
assay-context: 10 µM unless noted
Experimental: Growth inhibition of the SK-OV-3 human tumor cell line is measured as a screen for anti-cancer activity. Cells are grown in 96 well plates and exposed to the test compound for 48 hours. Compounds are tested at a single concentration, which is 10^-5 M for most compounds. The reported endpoint is percent growth (GI% or GIPRCNT), where numbers from 0 - 100% represent growth inhibition, and numbers from -100% - 0 represent cell death. For example, a value of 40 represents 60% growth inhibition. […]
The panel holds about 83,000 compounds, 20% with a hit somewhere; the sample as a whole holds those more often.
Reported growth by item:
Give just the number in %; leave the unit off.

Some entries whose results are on file:
# compound, growth [%]
records = [
    ("CC1=C(NCCN2CCCC2)C(=O)c2c(OCc3cccc(Cl)c3)cccc2C1=O", 95.2),
    ("CCOC(=O)C(=Cc1ccccc1F)C(=O)OCC", 106),
    ("COc1ccc(S(=O)(=O)NCCNc2nccc(-c3c(-c4cccc([N+](=O)[O-])c4)nc4sccn34)n2)cc1", 102),
    ("COc1cccc(/C=C2/C(=O)N(Cc3ccco3)SC2=S)c1OC", 97.8),
    ("C=C1CC2(OC1=O)C(=O)N(CCCCCCCCCCCCN1C(=O)C3(CC(=C)C(=O)O3)c3ccccc31)c1ccccc12 (centres undefined)", 105),
    ("N#Cc1c(N)nc(N)nc1Nc1ccc(Br)cc1", 108),
]

Sample COc1cnc2c(c1)C(=O)c1c-2n(CCCN2CCCC2)c(=O)c2cc([N+](=O)[O-])ccc12 ; growth observed: -9.51

Sample CC(C)n1cc2c(N)ncnc2n1 ; growth observed: 106
